# Experiment Notes: in vitro
# Condition Description: human, hela cells, % viability
Property Label: viability at 28.5 h, 10 µM

Below, 3 molecules whose answers are already recorded.
CC(=O)Nc1cccc(C(=O)N(Cc2ccccc2)Cc2ccccc2)c1; 91.6%
Cn1c(=O)[nH]c(=O)c2c1nc(Sc1ncccn1)n2CCCc1ccccc1; 86.3%
Fc1ccc(N2CCN(Cc3cccc(OCc4ccccc4)c3)CC2)cc1; 94.6%

Memo: CC(C)(C)c1ccc(-c2nc(O)c(CC(=O)O)s2)cc1 , reported viability at 28.5 h, 10 µM: 99.6%

Memo: CNC(=O)c1cc2ncc(C(F)(F)F)cc2s1 , reported viability at 28.5 h, 10 µM: 93.1%
